ratio aliph. reference
# targetDesc: porcine pancreatic α-amylase (Sus scrofa)
# Sequence (P00690 16-511): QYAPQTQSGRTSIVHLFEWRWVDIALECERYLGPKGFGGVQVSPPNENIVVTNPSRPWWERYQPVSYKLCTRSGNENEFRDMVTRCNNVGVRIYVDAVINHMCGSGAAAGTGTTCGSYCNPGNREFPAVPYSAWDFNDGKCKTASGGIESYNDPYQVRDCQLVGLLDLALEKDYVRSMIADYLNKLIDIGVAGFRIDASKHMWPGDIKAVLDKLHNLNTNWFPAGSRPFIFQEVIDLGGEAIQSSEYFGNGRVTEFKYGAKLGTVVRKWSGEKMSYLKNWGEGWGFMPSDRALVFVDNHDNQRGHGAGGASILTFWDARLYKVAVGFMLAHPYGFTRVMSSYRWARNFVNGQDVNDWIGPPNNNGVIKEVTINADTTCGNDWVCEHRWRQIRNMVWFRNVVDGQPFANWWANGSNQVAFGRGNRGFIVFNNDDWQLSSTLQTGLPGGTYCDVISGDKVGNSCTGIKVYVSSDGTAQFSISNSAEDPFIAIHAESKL
# assayComment: Saturation transfer difference (STD)-NMR interaction study
# Assay type: binding
# particulars: share of aliphatic proton saturation
Please reply with the value in numeric form only.

Previously resolved entries follow.
{"columns": ["molecule", "measuredProperty", "dataValue"],
 "data": [
  ["Oc1cc(O)c2c(c1)O[C@H](c1ccc(O)c(O)c1)[C@H](O)[C@H]2c1c(O)cc(O)c2c1O[C@H](c1ccc(O)c(O)c1)[C@H](O)C2", "ratio aliph.", 40],
  ["Oc1cc(O)c2c(c1)O[C@H](c1ccc(O)c(O)c1)[C@@H](O)C2 [CAT, (+)-Catechin]", "ratio aliph.", 21],
  ["Oc1cc(O)c2c(c1)O[C@H](c1ccc(O)c(O)c1)[C@H](O)[C@H]2c1c(O)cc(O)c2c1O[C@H](c1ccc(O)c(O)c1)[C@@H](O)C2", "ratio aliph.", 44]
]}

// recorded ratio aliph. for Oc1cc(O)c2c(c1)O[C@H](c1ccc(O)c(O)c1)[C@H](O)C2 [EC, (−)-Epicatechin] : 21

Looking up `Oc1cc(O)c2c(c1)O[C@H](c1ccc(O)c(O)c1)[C@H](O)[C@H]2c1c(O)cc(O)c2c1O[C@H](c1ccc(O)c(O)c1)[C@H](O)[C@H]2c1c(O)cc(O)c2c1O[C@H](c1ccc(O)c(O)c1)[C@H](O)C2` , I see its ratio aliph. listed as 39
